- measured-target: methionine synthase reductase (MSR), human, I22/S175 background (Homo sapiens, UniProt Q9UBK8)
- Sequence (Q9UBK8 whole entry): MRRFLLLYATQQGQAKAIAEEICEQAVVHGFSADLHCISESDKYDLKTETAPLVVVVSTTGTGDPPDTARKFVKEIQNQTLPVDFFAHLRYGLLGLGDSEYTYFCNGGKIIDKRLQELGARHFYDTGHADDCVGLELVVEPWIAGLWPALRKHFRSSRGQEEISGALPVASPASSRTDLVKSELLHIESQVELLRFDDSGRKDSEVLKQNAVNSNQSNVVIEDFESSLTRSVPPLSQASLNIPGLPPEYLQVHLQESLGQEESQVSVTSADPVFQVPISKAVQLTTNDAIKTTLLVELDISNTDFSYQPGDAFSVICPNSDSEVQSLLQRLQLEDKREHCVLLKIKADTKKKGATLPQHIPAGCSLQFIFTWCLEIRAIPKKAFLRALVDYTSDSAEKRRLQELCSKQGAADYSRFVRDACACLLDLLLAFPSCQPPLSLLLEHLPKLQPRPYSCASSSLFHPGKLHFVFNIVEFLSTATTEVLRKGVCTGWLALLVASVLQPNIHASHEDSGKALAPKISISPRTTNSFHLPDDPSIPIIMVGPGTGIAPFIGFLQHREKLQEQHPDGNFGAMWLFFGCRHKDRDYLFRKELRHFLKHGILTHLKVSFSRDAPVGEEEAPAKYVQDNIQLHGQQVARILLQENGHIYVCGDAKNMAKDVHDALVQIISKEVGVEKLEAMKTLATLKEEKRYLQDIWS
- assay: isothermal titration calorimetry
measured-quantity: Kd

**Q:** Looking for the measured Kd of NC(=O)c1ccc[n+]([C@@H]2O[C@H](COP(=O)(O)OP(=O)(O)OC[C@H]3O[C@@H](n4cnc5c(N)ncnc54)[C@H](OP(=O)(O)O)[C@@H]3O)[C@@H](O)[C@H]2O)c1 , can you help?
**A:** 54 µM
